Target: Chromatin remodeling regulator CECR2 (Homo sapiens)
Experiment: Inhibition of recombinant human N-terminal His6-FLAG-tagged CECR2 expressed in Rosetta2 (DE3) pLysS cells after 60 mins by TR-FRET assay
quantity: IC50 (nM)

Example results:
compound	experimental.target	IC50, nM
C=CCn1cc(C(=O)N(C)C2CCN(c3cc(-n4cccn4)ncn3)CC2)c2cc[nH]c2c1=O	Chromatin remodeling regulator CECR2 (Homo sapiens)	59
C=CCn1cc(C(=O)N(C)C2CCN(c3cc(OC)nc(C)n3)CC2)c2cc[nH]c2c1=O	Chromatin remodeling regulator CECR2 (Homo sapiens)	71
C=CCn1cc(C(=O)N(C)C2CCN(c3cc(OC)ncn3)CC2)c2cc[nH]c2c1=O	Chromatin remodeling regulator CECR2 (Homo sapiens)	130
CN1CCC(N(C)C(=O)c2cn(C)c(=O)c3[nH]ccc23)CC1	Chromatin remodeling regulator CECR2 (Homo sapiens)	780
C=CCn1cc(C(=O)N(C)C2CCN(c3cc(C(C)(C)C)ncn3)CC2)c2cc[nH]c2c1=O	Chromatin remodeling regulator CECR2 (Homo sapiens)	55

I. CC(c1ccccc1)N1CCC(N(C)C(=O)c2cn(C)c(=O)c3[nH]ccc23)CC1 (racemic)
II. CN1CCC(NC(=O)c2cn(C)c(=O)c3[nH]ccc23)CC1
Query: Compare IC50: is it lower for I or for II ? Write down the label of the entry you select.
Reply: I
(I: 330 nM, II: 1100 nM)

====

Biological target: Bromodomain-containing protein 9 (Homo sapiens, UniProt Q9H8M2)
Sequence (Q9H8M2 whole entry): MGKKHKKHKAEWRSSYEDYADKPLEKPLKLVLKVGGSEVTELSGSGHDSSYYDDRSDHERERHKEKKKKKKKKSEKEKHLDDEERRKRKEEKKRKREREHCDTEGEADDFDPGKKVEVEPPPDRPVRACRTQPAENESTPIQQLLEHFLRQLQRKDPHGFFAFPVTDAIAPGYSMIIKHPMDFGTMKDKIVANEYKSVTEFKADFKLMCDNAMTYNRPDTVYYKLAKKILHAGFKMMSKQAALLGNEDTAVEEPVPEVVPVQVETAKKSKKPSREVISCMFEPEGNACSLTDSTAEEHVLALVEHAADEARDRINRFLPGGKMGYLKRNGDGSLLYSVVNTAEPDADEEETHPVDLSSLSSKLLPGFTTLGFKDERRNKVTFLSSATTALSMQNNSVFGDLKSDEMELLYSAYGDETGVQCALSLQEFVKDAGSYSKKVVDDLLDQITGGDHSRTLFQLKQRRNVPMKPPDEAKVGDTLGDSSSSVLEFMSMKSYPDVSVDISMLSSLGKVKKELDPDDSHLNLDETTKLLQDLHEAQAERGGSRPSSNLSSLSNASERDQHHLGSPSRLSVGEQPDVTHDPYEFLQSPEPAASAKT
Test: Inhibition of recombinant human N-terminal His6-FLAG-tagged BRD9 (unknown origin) expressed in Rosetta2 (DE3) pLysS cells after 60 mins by TR-FRET assay
quantity: IC50 (µM)

A. C=CCn1cc(C(=O)N(C)C2CCN(c3cc(C4CC4)nc(C)n3)CC2)c2cc[nH]c2c1=O
B. C=CCn1cc(C(=O)N(C)C2CCN(c3cc(C(F)(F)F)ncn3)CC2)c2cc[nH]c2c1=O
Query: Compare IC50: is it lower for A or for B ? Write down the label of the entry you select.
Reply: A

====

Molecular target: Bromodomain-containing protein 4 (Homo sapiens, UniProt O60885)
Experiment: Inhibition of recombinant human N-terminal His6-FLAG-tagged BRD4 bromodomain 2 (unknown origin) expressed in Rosetta2 (DE3) pLysS cells after 60 mins by TR-FRET assay
Assay type: cell-based
quantity: IC50 (µM)

compound	result.value
CN1CCC(N(C)C(=O)c2cn(C)c(=O)c3[nH]ccc23)CC1	17.2

1. CC(c1ccccc1)N1CCC(N(C)C(=O)c2cn(C)c(=O)c3[nH]ccc23)CC1 (racemic)
2. CC(C)N1CCC(N(C)C(=O)c2cn(C)c(=O)c3[nH]ccc23)CC1
Query: Between the two listed entries 1 and 2 , which has its IC50 at the higher number? Write down the label of the entry you select.
Reply: 2
(2: 19.2 µM, 1: 6.1 µM)

====

Biological target: Chromatin remodeling regulator CECR2 (Homo sapiens, UniProt Q9BXF3)
Sequence (Q9BXF3 whole entry): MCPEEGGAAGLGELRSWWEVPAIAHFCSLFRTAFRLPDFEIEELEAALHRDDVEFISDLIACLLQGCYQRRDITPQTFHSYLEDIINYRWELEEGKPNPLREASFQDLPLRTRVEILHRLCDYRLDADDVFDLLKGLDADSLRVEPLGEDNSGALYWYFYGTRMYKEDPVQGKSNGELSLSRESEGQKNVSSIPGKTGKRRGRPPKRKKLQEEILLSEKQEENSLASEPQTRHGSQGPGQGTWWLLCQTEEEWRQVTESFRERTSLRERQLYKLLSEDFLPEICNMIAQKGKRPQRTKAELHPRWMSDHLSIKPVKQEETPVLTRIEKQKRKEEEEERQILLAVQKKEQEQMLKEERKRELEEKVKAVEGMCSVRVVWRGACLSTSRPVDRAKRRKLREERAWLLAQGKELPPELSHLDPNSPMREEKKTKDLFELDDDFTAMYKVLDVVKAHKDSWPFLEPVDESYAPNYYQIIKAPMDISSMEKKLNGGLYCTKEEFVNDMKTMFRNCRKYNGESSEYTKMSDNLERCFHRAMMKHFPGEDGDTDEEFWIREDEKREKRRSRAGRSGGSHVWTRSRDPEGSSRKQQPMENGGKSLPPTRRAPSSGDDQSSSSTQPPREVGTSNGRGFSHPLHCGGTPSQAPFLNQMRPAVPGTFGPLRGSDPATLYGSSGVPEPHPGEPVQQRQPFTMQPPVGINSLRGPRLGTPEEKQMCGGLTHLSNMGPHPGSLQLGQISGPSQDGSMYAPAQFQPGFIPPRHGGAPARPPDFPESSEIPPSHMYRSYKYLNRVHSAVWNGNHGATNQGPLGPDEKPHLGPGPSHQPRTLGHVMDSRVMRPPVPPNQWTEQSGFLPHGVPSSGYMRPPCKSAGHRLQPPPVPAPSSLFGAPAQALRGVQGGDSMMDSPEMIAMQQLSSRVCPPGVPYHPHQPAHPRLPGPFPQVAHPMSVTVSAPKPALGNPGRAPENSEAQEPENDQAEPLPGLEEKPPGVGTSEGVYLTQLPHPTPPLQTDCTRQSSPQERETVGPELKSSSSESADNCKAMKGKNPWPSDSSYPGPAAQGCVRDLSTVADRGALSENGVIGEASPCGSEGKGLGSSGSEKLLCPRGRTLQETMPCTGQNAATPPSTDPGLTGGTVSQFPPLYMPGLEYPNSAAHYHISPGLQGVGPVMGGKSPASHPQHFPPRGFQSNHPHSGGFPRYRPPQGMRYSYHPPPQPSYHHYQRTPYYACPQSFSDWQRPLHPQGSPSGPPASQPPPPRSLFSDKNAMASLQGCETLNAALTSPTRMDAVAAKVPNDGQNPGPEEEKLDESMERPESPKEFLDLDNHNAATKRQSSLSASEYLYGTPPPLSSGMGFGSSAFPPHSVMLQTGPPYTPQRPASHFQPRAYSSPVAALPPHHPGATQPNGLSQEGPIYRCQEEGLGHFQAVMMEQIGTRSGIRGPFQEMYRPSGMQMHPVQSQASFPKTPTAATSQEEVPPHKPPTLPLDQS
Assay: Inhibition of recombinant human N-terminal His6-FLAG-tagged CECR2 expressed in Rosetta2 (DE3) pLysS cells after 60 mins by TR-FRET assay
quantity: IC50 (nM)

molecule.smiles	IC50 [nM]
C=CCn1cc(C(=O)N(C)C2CCN(c3cc(C4CC4)nc(C)n3)CC2)c2cc[nH]c2c1=O	52
C=CCn1cc(C(=O)N(C)C2CCN(c3cc(-c4ccco4)ncn3)CC2)c2cc[nH]c2c1=O	45
C=CCn1cc(C(=O)N(C)C2CCN(c3cc(-c4ccccc4OC)ncn3)CC2)c2cc[nH]c2c1=O	45
